# assay system: IRAK4 (Homo sapiens)
# Sequence (Q9NWZ3 whole entry, species assumed): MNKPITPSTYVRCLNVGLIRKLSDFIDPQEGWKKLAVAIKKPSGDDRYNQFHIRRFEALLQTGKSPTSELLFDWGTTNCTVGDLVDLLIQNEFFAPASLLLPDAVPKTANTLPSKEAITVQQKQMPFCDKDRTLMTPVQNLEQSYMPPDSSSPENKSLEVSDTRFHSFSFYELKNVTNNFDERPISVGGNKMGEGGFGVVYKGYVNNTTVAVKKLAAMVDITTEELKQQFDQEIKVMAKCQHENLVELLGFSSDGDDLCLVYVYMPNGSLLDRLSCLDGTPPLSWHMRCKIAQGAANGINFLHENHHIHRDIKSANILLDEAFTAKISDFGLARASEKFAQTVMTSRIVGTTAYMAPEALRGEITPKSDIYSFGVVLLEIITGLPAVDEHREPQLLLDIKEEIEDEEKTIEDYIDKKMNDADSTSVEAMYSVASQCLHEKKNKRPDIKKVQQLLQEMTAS
# protocol details: WB detection of proteolysis (Western Blot, THP-1 cells)
# Format: cell-based
# measurement context: Western Blot, THP-1 cells, 24 h; read-out: DC50
measured metric: DC50

Take a look at these entries with their results.
molecule="Cn1c(=O)n(C2CCC(=O)NC2=O)c2cccc(N3CCC4(CCN(CC5CCC(n6cc(-n7cc(-c8cnn9ccc(N%10CCO[C@@H](CO)C%10)nc89)nn7)c(C(F)F)n6)CC5)CC4)CC3)c21 (some centres unmarked)" assay_system="IRAK4 (Homo sapiens)" result="< 10 nM"
molecule="C[C@H]1CN(C[C@H]2CC[C@H](n3cc(-n4cc(-c5cnn6ccc(N[C@@H]7CCCC[C@@H]7O)nc56)nn4)c(C(F)F)n3)CC2)CCN1C1CCN(c2cccc3c2n(C)c(=O)n3C2CCC(=O)NC2=O)CC1 (some centres unmarked)" assay_system="IRAK4 (Homo sapiens)" result="< 10 nM"
molecule="Cn1c(=O)n(C2CCC(=O)NC2=O)c2cccc(N3CCN(C[C@H]4CC[C@H](n5cc(-n6cc(-c7cnn8ccc(N9CCC[C@H](N)C9)nc78)nn6)c(C(F)F)n5)CC4)CC3)c21 (some centres unmarked)" assay_system="IRAK4 (Homo sapiens)" result="< 10 nM"
molecule="C[C@H]1CN(c2cccc3c2n(C)c(=O)n3C2CCC(=O)NC2=O)CCN1C[C@H]1CC[C@H](n2cc(-n3cc(-c4cnn5ccc(N6CCC[C@H](N)C6)nc45)nn3)c(C(F)F)n2)CC1 (some centres unmarked)" assay_system="IRAK4 (Homo sapiens)" result="> 30 nM"

Now turn to the next molecule.
Prompt: Which DC50 value belongs to Cn1c(=O)n(C2CCC(=O)NC2=O)c2cccc(N3CCC(N4CCN(C[C@H]5CC[C@H](n6cc(-n7cc(-c8cnn9ccc(N%10CCC[C@@H](O)C%10)nc89)nn7)c(C(F)F)n6)CC5)CC4)CC3)c21 (some centres unmarked) ?
Response: < 10 nM
